assay.remarks: Bioavailability in rat
Assay type: ADME, organism-based
assay.context: in vivo

>  <molecule.smiles>
CC(C)(C)Sc1c(CC(C)(C)C(=O)O)n(Cc2ccc(Cl)cc2)c2ccc(OCc3cscn3)cc12

>  <scale.unit>
%

>  <bioavailability>
98

$$$$
>  <molecule.smiles>
C[C@@H](COc1ccc2c(c1)c(SC(C)(C)C)c(CC(C)(C)C(=O)O)n2Cc1ccc(Cl)cc1)c1ccccn1

>  <scale.unit>
%

>  <bioavailability>
60

$$$$
>  <molecule.smiles>
CC(C)(C)Sc1c(CC(C)(C)C(=O)O)n(Cc2ccc(Cl)cc2)c2ccc(OCc3ccc4ccccc4n3)cc12

>  <scale.unit>
%

>  <bioavailability>
24

$$$$
>  <molecule.smiles>
CC(C)(C)Sc1c(CC(C)(C)C(=O)O)n(Cc2ccc(Cl)cc2)c2ccc(OCc3cccc(Cl)n3)cc12

>  <scale.unit>
%

>  <bioavailability>
37

$$$$

* * *

Measured IC50 by item
tested.on: UniProt P20292
Sequence (P20292 whole entry): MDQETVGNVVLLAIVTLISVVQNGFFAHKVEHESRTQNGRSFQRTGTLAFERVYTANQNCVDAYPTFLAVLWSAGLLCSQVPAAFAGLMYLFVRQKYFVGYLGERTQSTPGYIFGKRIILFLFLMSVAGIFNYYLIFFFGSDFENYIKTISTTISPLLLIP
assay.remarks: Measuring the affinity of leukotriene synthesis inhibitor for 5-lipoxygenase activating protein by using [125I]L-691831 as radioligand.

>  <compound>
CCCC(Oc1ccc2c(c1)c(SC(C)(C)C)c(CC(C)(C)C(=O)O)n2Cc1ccc(Cl)cc1)c1ccc2ccccc2n1 (centres undefined)

>  <IC50>
350 nM

$$$$
>  <compound>
CC(C)(C)Sc1c(CC(C)(C)C(=O)O)n(Cc2ccc(Cl)cc2)c2ccc(OCc3cscn3)cc12

>  <IC50>
5 nM

$$$$
>  <compound>
CC(C)(C)Sc1c(CC(C)(C)C(=O)O)n(Cc2ccc(Cl)cc2)c2ccc(OCc3cnccn3)cc12

>  <IC50>
7 nM

$$$$
>  <compound>
CC(COc1ccc2c(c1)c(SC(C)(C)C)c(CC(C)(C)C(=O)O)n2Cc1ccc(Cl)cc1)c1ccccn1 (centres undefined)

>  <IC50>
8 nM

$$$$
